- EXPERIMENT DESCRIPTION: chemical genetic growth profiling, strain panel (AID 1159580);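 further: tested at 20 µM; growth read once vehicle control cultures reached saturation at 30 °C; 1 = growth at the plate median or of vehicle wells; lower values mean less growth of the strain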
- CONDITION INFO: S. cerevisiae deletion strains, growth OD, locus YBR229C, strain ROT2, active compounds read low
In all, about 5,500 compounds went through this assay and about 2,000 (36%) were called active. About 18% were inconclusive and are not listed. Some of the results follow.
EXPERIMENTAL READOUT: normalized growth

>  <MOLECULE>
CC1=CC(=O)C2=C(C)CC[C@@H]3[C@H](OC(=O)[C@H]3C)[C@@H]12

>  <VALUE OBSERVED>
0.987

$$$$
>  <MOLECULE>
COc1cc(OC)c2c(=O)c(OC)c(-c3ccc(OC)c(OC)c3)oc2c1

>  <VALUE OBSERVED>
1

$$$$
>  <MOLECULE>
COc1ccc(-c2oc3c(CC=C(C)C)c(O[C@@H]4O[C@H](CO)[C@@H](O)[C@H](O)[C@H]4O)cc(O)c3c(=O)c2O[C@@H]2O[C@@H](C)[C@H](O)[C@@H](O)[C@H]2O)cc1

>  <VALUE OBSERVED>
1

$$$$
>  <MOLECULE>
COc1ccc2c(c1)CCC1C2CCC2(C)C1C[C@@H](O)C2O (some centres undefined)

>  <VALUE OBSERVED>
1.02

$$$$
>  <MOLECULE>
CSc1cccc(NC(=S)N=CN(C)C)c1

>  <VALUE OBSERVED>
1.01

$$$$
>  <MOLECULE>
O=c1c(O)c(-c2cc(O)c(O)c(O)c2)oc2cc(O)cc(O)c12

>  <VALUE OBSERVED>
1

$$$$
>  <MOLECULE>
CCC(c1ccc(O)cc1)C(CC)c1ccc(O)cc1 (centres undefined)

>  <VALUE OBSERVED>
0.993

$$$$
>  <MOLECULE>
CCOC(=O)N/N=C\c1ccccc1OCC

>  <VALUE OBSERVED>
0.998

$$$$
>  <MOLECULE>
C[C@]12CCC3c4ccc(O)cc4CCC3C1C[C@@H](O)[C@@H]2O (some centres undefined)

>  <VALUE OBSERVED>
0.962

$$$$
>  <MOLECULE>
CC(C)c1c(O)ccc2c1CCC1[C@@](C)(C=O)CCC[C@]21C (some centres undefined)

>  <VALUE OBSERVED>
0.713

$$$$
>  <MOLECULE>
CCC(N)C(O)c1ccc(O)c(O)c1 (centres undefined)

>  <VALUE OBSERVED>
1.02

$$$$
>  <MOLECULE>
CCOCN(C(=O)CCl)c1c(C)cccc1CC

>  <VALUE OBSERVED>
0.992

$$$$
>  <MOLECULE>
NS(=O)(=O)c1cc(C2(O)NC(=O)c3ccccc32)ccc1Cl (centres undefined)

>  <VALUE OBSERVED>
1.01

$$$$
>  <MOLECULE>
CCOC(=O)/C(C#N)=C/c1ccc(Br)cc1

>  <VALUE OBSERVED>
0.805

$$$$
>  <MOLECULE>
CC/C(=C(/CC)c1ccc(O)cc1)c1ccc(O)cc1

>  <VALUE OBSERVED>
1

$$$$
>  <MOLECULE>
CC1(C)C=CC(=O)[C@@]2(C)C1CC(=O)[C@]1(C)C2CC[C@@]2(C)[C@H](c3ccoc3)OC(=O)C3OC321 (some centres undefined)

>  <VALUE OBSERVED>
0.944

$$$$
>  <MOLECULE>
CN[C@@H]1C(O)[C@@H](O[C@@H]2[C@@H](O)[C@H](O[C@H]3OC(CN)=CC[C@H]3N)[C@@H](N)C[C@H]2N)OC[C@]1(C)O (some centres undefined)

>  <VALUE OBSERVED>
1.02

$$$$
>  <MOLECULE>
CCOC(=O)C1=C(N)Oc2ccc(Br)cc2C1C(C#N)C(=O)OCC (centres undefined)

>  <VALUE OBSERVED>
0.938

$$$$
>  <MOLECULE>
COC(=O)[C@@]1(C)CCC[C@]2(C)c3ccc(O)c(C(C)C)c3CCC12 (some centres undefined)

>  <VALUE OBSERVED>
0.875

$$$$
>  <MOLECULE>
COc1cc(O)c2c(=O)c(O)c(-c3ccc(O)c(O)c3)oc2c1

>  <VALUE OBSERVED>
0.987

$$$$
>  <MOLECULE>
CC(C)CC1NC(=O)NC1=O (centres undefined)

>  <VALUE OBSERVED>
1.01

$$$$
>  <MOLECULE>
COC(=O)C1OC(=O)C2OC23C1(C)CCC1C2(C)C(OC(C)=O)CC(OC(C)=O)C(C)(C)C2CC(=O)C13C (centres undefined)

>  <VALUE OBSERVED>
1

$$$$
>  <MOLECULE>
CC(=O)Oc1ccc2c(c1C(C)C)CCC1C(C)(C)CCC[C@]21C (some centres undefined)

>  <VALUE OBSERVED>
1.02

$$$$
>  <MOLECULE>
O=C1c2ccccc2C(=O)N1CNc1ccc(N2CCOCC2)cc1

>  <VALUE OBSERVED>
1

$$$$

----------
- EXPERIMENT DESCRIPTION: chemical genetic growth profiling, strain panel (AID 1159580);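 further: tested at 20 µM; growth read once vehicle control cultures reached saturation at 30 °C; 1 = growth at the plate median or of vehicle wells; lower values mean less growth of the strain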
- CONDITION INFO: S. cerevisiae deletion strains, growth OD, locus YGL086W, strain mad1
Hit rate of the full screen: of about 5,500 compounds, about 2,000 (36%) were called active. Not shown: some 18% with an inconclusive outcome. No stated cut-off is given here; in the data, active means normalized growth mostly below about 0.91 (no sharp cut-off); inconclusive means no clear call, values can overlap the other calls; inactive means mostly above about 0.92. The list shows a part of the results.
Classes used: active, inactive

>  <COMPOUND>
CCCCOc1cc(C(=O)NCCN(CC)CC)c2ccccc2n1

>  <ASSIGNED CLASS>
inactive

$$$$
>  <COMPOUND>
CCOC(=O)c1c(C)cc(O)cc1O

>  <ASSIGNED CLASS>
active

$$$$
>  <COMPOUND>
CC(C)c1c(O)c(-c2cc3c(c(C(C)C)c2O)CCC2C(C)(C)CCC[C@]32C)cc2c1CCC1C(C)(C)CCC[C@]21C (stereo partly drawn)

>  <ASSIGNED CLASS>
inactive

$$$$

----------
- EXPERIMENT DESCRIPTION: chemical genetic growth profiling, strain panel (AID 1159580);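 further: tested at 20 µM; growth read once vehicle control cultures reached saturation at 30 °C; 1 = growth at the plate median or of vehicle wells; lower values mean less growth of the strain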
- CONDITION INFO: S. cerevisiae deletion strains, growth OD, locus YGL240W, strain doc1, active compounds read low
About 2,000 (36%) of roughly 5,500 compounds were called active. Not shown: some 18% with an inconclusive outcome. The list shows a part of the results.
Listing of entries alongside the reported normalized growth.

>  <COMPOUND>
CC1(C)O[C@H]2CC(=O)OC[C@]23[C@H]2CC[C@@]4(C)[C@H](c5ccoc5)OC(=O)[C@H]5O[C@]54[C@]2(C)C(=O)C[C@@H]13

>  <normalized growth>
0.962

$$$$
>  <COMPOUND>
CC(C)c1c(O)ccc2c1CCC1[C@@](C)(C=O)CCC[C@]21C (stereo partly specified)

>  <normalized growth>
0.926

$$$$
>  <COMPOUND>
O=C(OC1Cc2c(O)cc(O)cc2OC1c1cc(=O)c(O)c2c(O)c(O)cc(C3Oc4cc(O)cc(O)c4CC3O)c2c1)c1cc(O)c(O)c(O)c1 (stereo unspecified)

>  <normalized growth>
1

$$$$
>  <COMPOUND>
CC1(C)C(=O)C=C[C@@]2(C)C1CC(=O)[C@]1(C)C2CC[C@@]2(C)[C@H](c3ccoc3)OC(=O)[C@H]3O[C@]321 (stereo partly specified)

>  <normalized growth>
1.06

$$$$
>  <COMPOUND>
CC(C1OC(C)(C)C(O)C1O)[C@@H]1CC[C@]2(C)C3=CCC4C(C)(C)C(=O)CC[C@]4(C)C3CC[C@@]12C (stereo partly specified)

>  <normalized growth>
0.896

$$$$
>  <COMPOUND>
O=c1c(O)c(-c2ccc(O)c(O)c2)oc2c(O[C@@H]3O[C@H](CO)[C@H](O)[C@@H](O)[C@H]3O)c(O)cc(O)c12

>  <normalized growth>
1.01

$$$$
>  <COMPOUND>
CC(C)(C)NCC(O)c1cc(O)cc(O)c1 (stereo unspecified)

>  <normalized growth>
1.02

$$$$
>  <COMPOUND>
Cc1ccccc1OCC(O)CO (stereo unspecified)

>  <normalized growth>
0.971

$$$$
>  <COMPOUND>
O=C(O)C1=C[C@@H](O)[C@@H](O)[C@H](O)C1

>  <normalized growth>
0.988

$$$$
>  <COMPOUND>
CCOC(=O)c1c(C)cc(OC)cc1O

>  <normalized growth>
0.903

$$$$
>  <COMPOUND>
COc1ccc(Cl)cc1C(=O)NCCc1ccc(S(=O)(=O)NC(=O)NC2CCCCC2)cc1

>  <normalized growth>
0.994

$$$$
>  <COMPOUND>
CCC(N)C(O)c1ccc(O)c(O)c1 (stereo unspecified)

>  <normalized growth>
0.96

$$$$
>  <COMPOUND>
CC/C(=C(/CC)c1ccc(O)cc1)c1ccc(O)cc1

>  <normalized growth>
0.98

$$$$
>  <COMPOUND>
COc1ccc(-c2cc(=O)c3c(O)cc(O[C@@H]4O[C@H](CO[C@H]5O[C@H](C)[C@@H](O)[C@H](O)[C@@H]5O)[C@@H](O)[C@H](O)[C@H]4O)cc3o2)cc1O

>  <normalized growth>
1.04

$$$$
>  <COMPOUND>
CC(C)c1c(O)ccc2c1CCC1[C@@](C)(CO)CCC[C@]21C (stereo partly specified)

>  <normalized growth>
1.01

$$$$
>  <COMPOUND>
CC1(C)C2CC(=O)[C@]3(C)C(CC[C@@]4(C)[C@H](c5ccoc5)OC(=O)C5OC543)[C@@]2(C)[C@@H](O)C[C@H]1O (stereo partly specified)

>  <normalized growth>
1.01

$$$$
